B1: minF1; a variant is named by its letters at N, in order (parent)
chain: GAGACCGCAACTGAAAAGTTGTTNNNNAANNNNGGNTNNATTTCTGCACGTAGAAGCAAAAGGC

variants of: B1; experiment: fraction ligated after 30 min (ligated reads / total reads); higher = more ligase activity; details: with F1*subA RNA substrate (template-directed ligation), 42 °C
Use fraction ligated to assign classes; range list: low interval: < 0.002; middle interval: ≥ 0.002 and < 0.003; high interval: ≥ 0.003

Below, 6 variants whose answers are already recorded.
GAGACCGCAACTGAAAAGTTGTTACGAATGGTGGGTTGAATTTCTGCACGTAGAAGCAAAAGGC [ACGAGGTGTGA A29T]	high interval
GAGACCGCAACTGAAAAGTTGTTATCGAAAGATGGGTTGATTTCTGCACGTAGAAGCAAAAGGC [ATCGAGATGTG]	high interval
GAGACCGCAACTGAAAAGTTGTTATCAAAATGTGGGTTGATTTCTGCACGTAGAAGCAAAAGGC [ATCAATGTGTG]	high interval
GAGACCGCAACTGAAAAGTTGTTTCAAATGGTGGGTTGAATTTCTGCACGTAGAAGCAAAAGGC [TCAAGGTGTGA A29T]	low interval
GAGACCGCAACTGAAAAGTTGTACGAAAGGATGGGTTGAATTTCTGCACGTAGAAGCAAAAGGC [CGAAGATGTGA T23A A29G]	low interval
GAGACCGCAACTGAAAAGTTGTATAGAAATGATGGTTGAATTTCTGCACGTAGAAGCAAAAGGC [TAGATGATTGA T23A]	middle interval

Class label required: GAGACCGCAACTGAAAAGTTGTTATCGATGGATGGTTGAATTTCTGCACGTAGAAGCAAAAGGC [ATCGGGATTGA A29T]
high interval

Class label required: GAGACCGCAACTGAAAAGTTGTTCGAAATGGATGGTTGAATTTCTGCACGTAGAAGCAAAAGGC [CGAAGGATTGA A29T]
high interval
